- Assay Text: Long-term storage stability 1 year room temperature, Example 7 emulsifiable concentrate (triethanolamine + DBSCa)
- Assay type: physicochemical
- Experimental Context: Example 7 formulation; 1 year @ room temp

{"Compound": "CCCCCCC(=O)Oc1c(Br)cc(C#N)cc1Br [Bromoxynil Heptanoate Esters, bromoxynil heptanoate]", "Value Units": "%", "Change from expected": "−3.03"}
{"Compound": "CCCCCCCC(=O)Oc1c(Br)cc(C#N)cc1Br [Bromoxynil Octanoate, bromoxynil octanoate]", "Value Units": "%", "Change from expected": "−3.083"}
{"Compound": "Cc1nn(C)c(O)c1C(=O)c1ccc(C(F)(F)F)cc1S(C)(=O)=O", "Value Units": "%", "Change from expected": "−3.083"}
{"Compound": "CCOC(=O)[C@@H](C)Oc1ccc(Oc2nc3ccc(Cl)cc3o2)cc1", "Value Units": "%", "Change from expected": "−0.625"}

----------
- Assay Text: Long-term storage stability 1 year room temperature, Example 7 emulsifiable concentrate (triethanolamine + DBSCa)
- Assay type: physicochemical
- Experimental Context: Example 7 formulation; 1 year @ room temp
Listed here are compounds together with their documented Avg. Wt % active ingredient.

{"Compound": "CCOC(=O)[C@@H](C)Oc1ccc(Oc2nc3ccc(Cl)cc3o2)cc1 [Fenoxaprop p-ethyl, fenoxaprop p-ethyl]", "Value Units": "Wt %", "Avg. Wt % active ingredient": 7.95}
{"Compound": "CCCCCCC(=O)Oc1c(Br)cc(C#N)cc1Br [Bromoxynil Heptanoate Esters, bromoxynil heptanoate]", "Value Units": "Wt %", "Avg. Wt % active ingredient": 12.47}
{"Compound": "CCCCCCCC(=O)Oc1c(Br)cc(C#N)cc1Br [Bromoxynil Octanoate, bromoxynil octanoate]", "Value Units": "Wt %", "Avg. Wt % active ingredient": 13.08}
{"Compound": "Cc1nn(C)c(O)c1C(=O)c1ccc(C(F)(F)F)cc1S(C)(=O)=O [Pyrasulfotole, pyrasulfotole]", "Value Units": "Wt %", "Avg. Wt % active ingredient": 3.14}

----------
- Assay Text: Long-term storage stability, Comparative Example 5 emulsifiable concentrate with bromoxynil mixed esters (triethylamine buffer)
- Format: physicochemical
- Experimental Context: Comparative Example 5 formulation; 8 weeks @ 40° C.
Known Avg. Wt % active ingredient of a selection of compounds
Property: Avg. Wt % active ingredient (Wt %)

{"Compound": "CCOC(=O)C1=NN(c2ccc(Cl)cc2Cl)C(C)(C(=O)OCC)C1 (stereo not shown)", "Property": "Avg. Wt % active ingredient", "Assay Result": 1.75}
{"Compound": "Cc1nn(C)c(O)c1C(=O)c1ccc(C(F)(F)F)cc1S(C)(=O)=O", "Property": "Avg. Wt % active ingredient", "Assay Result": 1.26}
{"Compound": "CCOC(=O)[C@@H](C)Oc1ccc(Oc2nc3ccc(Cl)cc3o2)cc1", "Property": "Avg. Wt % active ingredient", "Assay Result": 4.33}
{"Compound": "CCCCCCCC(=O)Oc1c(Br)cc(C#N)cc1Br [Bromoxynil Octanoate, bromoxynil octanoate]", "Property": "Avg. Wt % active ingredient", "Assay Result": 5.02}

----------
Each entry below carries its reported Avg. Wt % active ingredient.
- Assay Text: Long-term storage stability, Comparative Example 5 emulsifiable concentrate with bromoxynil mixed esters (triethylamine buffer)
- Format: physicochemical
- Experimental Context: Comparative Example 5 formulation; 8 weeks @ room temp.

{"Compound": "Cc1nn(C)c(O)c1C(=O)c1ccc(C(F)(F)F)cc1S(C)(=O)=O", "Avg. Wt % active ingredient [Wt %]": 1.30}
{"Compound": "CCOC(=O)C1=NN(c2ccc(Cl)cc2Cl)C(C)(C(=O)OCC)C1 (stereo not shown)", "Avg. Wt % active ingredient [Wt %]": 1.75}
{"Compound": "CCCCCCCC(=O)Oc1c(Br)cc(C#N)cc1Br [Bromoxynil Octanoate, bromoxynil octanoate]", "Avg. Wt % active ingredient [Wt %]": 5.65}
{"Compound": "CCOC(=O)[C@@H](C)Oc1ccc(Oc2nc3ccc(Cl)cc3o2)cc1", "Avg. Wt % active ingredient [Wt %]": 4.33}

----------
- Assay Text: Long-term storage stability, Comparative Example 5 emulsifiable concentrate with bromoxynil mixed esters (triethylamine buffer)
- Format: physicochemical
- Experimental Context: Comparative Example 5 formulation; 8 weeks @ 0° C.
Property: Avg. Wt % active ingredient (Wt %)

{"Compound": "CCOC(=O)C1=NN(c2ccc(Cl)cc2Cl)C(C)(C(=O)OCC)C1 (stereo not shown)", "Value Units": "Wt %", "Assay Result": 1.73}
{"Compound": "CCCCCCCC(=O)Oc1c(Br)cc(C#N)cc1Br [Bromoxynil Octanoate, bromoxynil octanoate]", "Value Units": "Wt %", "Assay Result": 5.67}
{"Compound": "CCOC(=O)[C@@H](C)Oc1ccc(Oc2nc3ccc(Cl)cc3o2)cc1", "Value Units": "Wt %", "Assay Result": 4.30}
{"Compound": "Cc1nn(C)c(O)c1C(=O)c1ccc(C(F)(F)F)cc1S(C)(=O)=O", "Value Units": "Wt %", "Assay Result": 1.38}

----------
- Assay Text: Long-term storage stability, Comparative Example 5 emulsifiable concentrate with bromoxynil mixed esters (triethylamine buffer)
- Type: physicochemical
- Experimental Context: Comparative Example 5 formulation; 8 weeks @ room temp.
The following molecules are listed with their measured change from 0° C. values.
Property: change from 0° C. (%)

{"Molecule": "CCCCCCCC(=O)Oc1c(Br)cc(C#N)cc1Br [Bromoxynil Octanoate, bromoxynil octanoate]", "Property": "change from 0° C.", "Assay Result": "−0.41"}
{"Molecule": "Cc1nn(C)c(O)c1C(=O)c1ccc(C(F)(F)F)cc1S(C)(=O)=O [Pyrasulfotole, pyrasulfotole]", "Property": "change from 0° C.", "Assay Result": "−5.80"}
{"Molecule": "CCOC(=O)C1=NN(c2ccc(Cl)cc2Cl)C(C)(C(=O)OCC)C1 (stereo not shown) [Mefenpyr diethyl, mefenpyr diethyl]", "Property": "change from 0° C.", "Assay Result": 0.77}
{"Molecule": "CCOC(=O)[C@@H](C)Oc1ccc(Oc2nc3ccc(Cl)cc3o2)cc1 [Fenoxaprop p-ethyl, fenoxaprop p-ethyl]", "Property": "change from 0° C.", "Assay Result": 0.07}

----------
- Assay Text: Long-term storage stability, Comparative Example 5 emulsifiable concentrate with bromoxynil mixed esters (triethylamine buffer)
- Format: physicochemical
- Experimental Context: Comparative Example 5 formulation; 8 weeks @ 40° C.

{"Compound": "CCOC(=O)[C@@H](C)Oc1ccc(Oc2nc3ccc(Cl)cc3o2)cc1", "change from 0° C. [%]": 0.68}
{"Compound": "Cc1nn(C)c(O)c1C(=O)c1ccc(C(F)(F)F)cc1S(C)(=O)=O", "change from 0° C. [%]": "−9.04"}
{"Compound": "CCOC(=O)C1=NN(c2ccc(Cl)cc2Cl)C(C)(C(=O)OCC)C1 (stereo not shown)", "change from 0° C. [%]": 0.88}
{"Compound": "CCCCCCCC(=O)Oc1c(Br)cc(C#N)cc1Br [Bromoxynil Octanoate, bromoxynil octanoate]", "change from 0° C. [%]": "−11.52"}
